target: T1, human complement factor D purified from serum (human, UniProt P00746 26-253)
T1 construct: serum-purified (CompTech); also called hCFD-Comptech; CFD
T1 sequence (P00746 26-253): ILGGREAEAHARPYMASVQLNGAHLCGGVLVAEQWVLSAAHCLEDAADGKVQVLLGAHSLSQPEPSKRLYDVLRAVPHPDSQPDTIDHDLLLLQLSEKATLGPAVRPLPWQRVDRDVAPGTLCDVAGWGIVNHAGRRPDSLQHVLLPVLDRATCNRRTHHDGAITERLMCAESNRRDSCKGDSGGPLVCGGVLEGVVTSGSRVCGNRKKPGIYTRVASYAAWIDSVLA
metric: pKd
The value called pKd is obtained by taking minus log10 of the concentration in mol/L.

As a guide, the following entries are already answered.
KCD122 (antibody, V domains shown, chimeric) VH: EVQLQQSGPELVKPGASVKISCKASGYTFTDYYKNWMRQRHGESLEWIGDINPNNGDANYNQKFKGKATLTVDKSSSTAYMELRSLTSEDSAVYFCAREGPSFAYWGHGTLVTVSA VL: DVLMTQTPLSLPVSLGDQASISCRSSQTIVHSNGDTYLEWYLQKPGQSPNLLIYKVSNRFSGVPDRFSGSGSGTDFTLKISRVEAEDLGVYYCFQGSHVPPTFGGGTKLEIK :: 9.79
KCD118 (antibody, V domains shown, chimeric) VH: EVQLQQSGPELVKPGASVKISCKAFGYTFTDYYKNWMRQRHGESLEWIGDINPNSGDANYNQKFKGKATLTVDKSSSTAYMELRSLTSEDSAVYYCAREGPSFAYWGHGTLVTVSA VL: DVLMTQTPLSLPVSLGDQASISCRSSQTIVHSNGDTYLEWYLQKPGQSPNLLIYKVSNRFSGVPDRFSGSGSGTDFTLKISRVEAEDLGIYYCFQGSHVPPTFGGGTKLEIK :: 10.05
KCD010 (antibody, V domains shown, chimeric) VH: EVLLQQSGPELVKPGASVKIPCKASGYTFTDYDMDWVKQSHGKSLEWIGHINPNNGGTIYNQKFKGKATLTVDKSSSTAYMELRSLTSEDTAVYYCGTGDFAYWGHGTLVTVSA VL: QIVLTQSPAIMSVSPGEKVTLTCSASSSVSSSYLYWYQKKPGSSPKLWIYSTSNLASGVPARFSGSGSGTSYSLTISSMEAEDAASYFCHQWSSYPPTFGAGTKLELK :: 8.84
KCD119 (antibody, V domains shown, chimeric; also called Mouse KCD119) VH: EVQLQQSGPELVKPGASVKISCKASGYTFTDYYTNWMRQRHGESLEWIGDINPNTGDTSYNQKFRVKATLTVDKSSGTAYMGLRSLTSEDSAVYYCTREGPSFAYWGQGTLVTVSA VL: DVLMTQTPLSLPVSLGDQASISCRSSQTIVHSNGDTYLEWYLQKPGQSPNLLIYKVSNRFSGVPDRFSGSGSGTDFTLKISRVEAEDLGVYYCFQGSHVPPTFGGGTTLEIK :: 10.45
KCD005 (antibody, V domains shown, chimeric) VH: EVQLQQSGPELVKPGASVKISCKASGYTFTDHYMNWVKQSHGKSLEWIGDINPNNGGTSCNQKFKGKATLTVDKSSSTAYMELRSLTSGDSAVYYCTREGASFAFWGQGTLVTVSA VL: DVLMTQTPLSLPVSLGDQASISCRSSQSIVHSNGDTYLEWYLQKPGQSPKLLIYKVSNRFSGVPDRFSGSGSGTDFTLKISRVEAEDLGVYYCFQGSHVPVTFGAGTKLELK :: 9.14
KCD121 (antibody, V domains shown, chimeric) VH: EVQLQQSGPELVKPGASVKISCKASGYTFTDYYKNWMRQRHGESLEWIGDINPNNGDTSYNQKFRGKATLTVDKSSSTAFMELRSLTSEDSAVYYCAREGPSFAYWGQGTLVTVSA VL: DVLMTQTPLSLPVSLGDQASISCRSNQTIVHSNGDTYLEWYLQKPGQSPNLLIYKVSNRFSGVPDRFSGSGSGTDFTLRISRVEAEDLGVYYCFQGSHVPPTFGGGTKLEIK :: 9.53
KCD124 (antibody, V domains shown, chimeric) VH: EVQLQQSGPELVKPGASVKISCKASGYTFTDHYMNWVKQSHGKSLEWIGDINPNNGGTSYNQKFKGKATLTVDKSSSTAYMELRSLTSGDSAVYYCTREGASFAFWGQGTLVTVSA VL: DVLMTQTPLSLPVSLGDQASISCRSSQSIVHSNGDTYLEWYLQKPGQSPKLLIYKVSNRFSGVPDRFSGSGSGTDFTLKISRVEAEDLGVYYCFQGSHVPLTFGAGTKLELK :: 9.11
KCD003 (antibody, V domains shown, chimeric) VH: EVQLQQSRPELVKPGASVKIFCKASGYTFTDYYMNWMRQRHGETLEWIGDINPNNGDPSYNQKFKDKATLTVDKSSSTASMELRSLTSDDSAVYYCAREGPSFAYWGQGTLVTVSA VL: DVLMTQTPLSLPVSLGEQASISCRSSQTIVHSNGDTYLEWYLQKPGQSPNLLIYKVSNRFSGVPDRFSGSGSGTDFTLKISRVEAEDLGVYYCFQGSHVPPTFGGGTKLEIK :: 9.50

Turning now to a further binder:
Enquiry: What does the data say about its pKd? Entry: KCD123 (antibody, V domains shown, chimeric) VH: EVHLQQSGPELVKPGASVKISCKASGYTFTDFYKNWMRQRHGESLEWIGDINPNNGGTNYNQKFKGKATLTVDKSSSTAYMELRSLTSEDSAVYYCAREGPSFAYWGQGTLVTVSA VL: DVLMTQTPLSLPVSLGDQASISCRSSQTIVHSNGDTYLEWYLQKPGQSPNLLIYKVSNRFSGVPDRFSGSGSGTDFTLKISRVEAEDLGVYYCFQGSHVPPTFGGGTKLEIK
Return: 9.56
